Test system: SK-MEL-2 melanoma
procedure-text: NCI-60 one-dose screen, 48 h
study-conditions: 10 µM unless noted
This is part of a sample that, as a whole, favours compounds with a hit. Of some 83,000 tested, about 20% had one in any assay. Active and inactive are the calls of the source. Rule for the calls: active = growth percent below 10; inactive = the rest.
Answer with one of the outcomes True for active, False for inactive

Asked: Field: outcome | Entry: COc1ccc(NC(=O)[C@H](C)N)cc1C(=O)Nc1cccc(C2CC(=O)c3c(cc(OC)c(OC)c3OC)O2)c1 (stereo not given in full)
Given back: False

Asked: Test call for this compound, please: CCN(CC)c1ccnc(CNCCSC(c2ccccc2)(c2ccccc2)c2ccc(C)cc2)c1
Given back: True

Asked: Please indicate how the test categorized CCOC(=O)C1=C(N)N(c2ccccc2)C2=C(C(=O)CC(C)(C)C2)C1c1ccccc1Cl (stereo not given) .
Given back: False

Asked: Write down the call the test reported for this compound. Item: O=c1[nH]c2ccc(Cl)cc2cc1CSc1nccc(-c2ccc(Cl)cc2)n1
Given back: False

Asked: Name the outcome recorded for N#Cc1ccc(/C=N/NC(=O)c2[nH]c3ccc(Br)cc3c2-c2ccccc2)o1 in the assay.
Given back: False

Asked: Each compound tested received a call. Report the one for COc1cc2oc(-c3cccc(NC(=O)[C@H](Cc4ccccc4)NC(=O)OC(C)(C)C)c3)cc(=O)c2c(OC)c1OC .
Given back: False

Asked: Write down the call the test reported for this compound. Item: CC1=C(C(=O)c2ccccc2)C(c2cccc3ccccc23)n2c(nc3ccccc32)N1 (stereo not given)
Given back: False

Asked: What did the test return for Nc1nnc(-c2c[nH]c3ccc(Br)cc23)c(-c2c[nH]c3ncc(Br)cc23)n1 ?
Given back: True

Asked: Outcome logged for N#Cc1c(NCc2ccccc2)n[nH]c1Nc1ccccc1 in this assay:
Given back: False

Asked: Field: outcome | Entry: C=CC(=O)Nc1ccc(C)c(Oc2ccc(Cl)cc2)c1
Given back: False

src = PubChem BioAssay (NCI)
